These measurements were taken from the supplement of paper PMC10981050.

Tested on: MARIMO
method summary: cell viability relative to vehicle control; higher = less cytotoxic;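 further: after 48 h exposure read by CellTiter-Glo luminescence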
cond: 10 µM; SRSF2 genotype: SRSF2 P95H/wt
Where a name gives a salt, the structure may show the parent alone.
Parameter cell viability: see the listing below.
Give the number; % is assumed, so skip it.

Guide cases for cell viability, answers given:
CN(Cc1cc(Br)cc(Br)c1N)C1CCCCC1 [Bromhexine HCl] = 86.6
CCCCC(=O)O[C@]1(C(=O)CO)[C@@H](C)C[C@H]2[C@@H]3CCC4=CC(=O)C=C[C@]4(C)[C@@]3(F)[C@@H](O)C[C@@]21C [Betamethasone valerate (Betnovate)] = 96.9

Quick note, cell viability for "Cn1cc(-c2ccc3c(c2)CCN3C(=O)Cc2cccc(C(F)(F)F)c2)c2c(N)ncnc21" landed at 60.5

According to the records, this molecule "COC1=C2C[C@@H](C)C[C@H](OC)[C@H](O)[C@@H](C)/C=C(\C)[C@H](OC(N)=O)[C@@H](OC)/C=C\C=C(/C)C(=O)NC(=CC1=O)C2=O" displays cell viability of 26.4

get_value(item= CC(C)=CCC[C@](C)(O[C@@H]1O[C@H](CO)[C@@H](O)[C@H](O)[C@H]1O)[C@H]1CC[C@]2(C)[C@@H]1[C@H](O)C[C@@H]1[C@@]3(C)CC[C@H](O)C(C)(C)[C@@H]3[C@@H](O)C[C@]12C [Ginsenoside F1] , readout=cell viability) returns 105

# molecule "O=C1C[C@@H](c2ccc(O[C@@H]3O[C@H](CO)[C@@H](O)[C@H](O)[C@H]3O)cc2)Oc2cc(O)ccc21" ; its cell viability = 83.3

Entry CCN(CC)CCCC(C)Nc1c2ccc(Cl)cc2nc2ccc(OC)cc12 (configuration not stated) [Quinacrine Dihydrochloride Dihydrate] ; cell viability = 1.66

Record summary for COc1cccc(OC)c1C(=O)OCc1cc(O)ccc1O[C@@H]1O[C@H](CO)[C@@H](O)[C@H](O)[C@H]1O [Curculigoside] : reported cell viability = 110

Kindly note the recorded cell viability for CCC1(c2c[nH]cn2)Cc2ccccc2C1 [Atipamezole hydrochloride] , which is 92.4

Input "COc1ccc(Cn2ccc3ccc(C(=O)NO)cc32)cc1" . Output cell viability: 65.9

Value of measured cell viability for the entry "C[C@H](C[C@H](O)[C@H]1OC1(C)C)C1=C2C[C@H](O)[C@H]3[C@@]4(C)CCC(=O)C(C)(C)[C@@H]4CC[C@]3(C)[C@@]2(C)CC1" : 70.8

cell viability reading for "O=c1c2ccccc2nc(C=Cc2cccnc2)n1Cc1ccccc1" : 74.3

* * *

Listed here: items and their measured cell viability.
Tested on: MOLM14
method summary: cell viability relative to vehicle control; higher = less cytotoxic
cond: 10 µM; SRSF2 genotype: SRSF2 P95H/wt
Where a name gives a salt, the structure may show the parent alone.
Reply numerically in %, unit not repeated.

Example entries begin here.
CN1C(=O)[C@@H](NC(=O)c2n[nH]c(Cc3ccccc3)n2)COc2ccccc21 = 103
CCN(CC)CCOc1ccc(C(=C(Cl)c2ccccc2)c2ccccc2)cc1 [Clomifene citrate (Serophene)] = 50.8
CN1CCC(=C2c3ccccc3CC(=O)c3sccc32)CC1 [Ketotifen fumarate (Zaditor)] = 94.6
CCn1c(N)c(C(=O)NC)c(=O)c2ccc(C#CC(C)(O)COC)nc21 (stereo not drawn) = 48.1
Cc1cc(C#N)cc(C)c1Oc1nc(Nc2ccc(C#N)cc2)nc(N)c1Br = 107

// cell viability value for "CC(C)=CCOc1ccc(/C=C/C(=O)c2ccc(OCC=C(C)C)cc2OCC(=O)O)cc1" : 84.9

The reported cell viability of the compound "O=c1cc(-c2ccc(O)cc2)oc2c([C@@H]3O[C@H](CO)[C@@H](O)[C@H](O)[C@H]3O)c(O)cc(O)c12" was 101

Reported cell viability for CN(C)CCOc1ccc(/C(=C(/CCCl)c2ccccc2)c2ccccc2)cc1 [Toremifene Citrate (Fareston, Acapodene)] was 56

* * *

Measured cell viability values are reported for all entries that follow.
Test system: MARIMO
method summary: cell viability relative to vehicle control; higher = less cytotoxic
cond: 10 µM; SRSF2 genotype: SRSF2 P95H/wt
Where a name gives a salt, the structure may show the parent alone.
Lab book: enter the figure in %, no units written.

Recorded results for 7 compounds are shown here.
O=C(Nc1ccc(Br)cc1)c1c(O)cccc1O [Resorantel] = 38.7
NCCc1c[nH]cn1 [Histamine] = 84
CC(O)COCC1OC2OC3C(COCC(C)O)OC(OC4C(COCC(C)O)OC(OC5C(COCC(C)O)OC(OC6C(COCC(C)O)OC(OC7C(COCC(C)O)OC(OC8C(COCC(C)O)OC(OC1C(O)C2O)C(O)C8O)C(O)C7O)C(O)C6O)C(O)C5O)C(O)C4O)C(O)C3O (stereo not drawn) = 105
CC(C)=CCC[C@](C)(O[C@@H]1O[C@H](CO[C@@H]2O[C@H](CO)[C@@H](O)[C@H](O)[C@H]2O)[C@@H](O)[C@H](O)[C@H]1O)[C@H]1CC[C@]2(C)[C@@H]1[C@H](O)C[C@@H]1[C@@]3(C)CC[C@H](O[C@@H]4O[C@H](CO)[C@@H](O)[C@H](O)[C@H]4O)C(C)(C)[C@@H]3CC[C@]12C [Gypenoside XVII] = 108
O=C(O)c1cccnc1 [Niacin (Nicotinic acid)] = 99.3
c1ccc2c(CC3=NCCN3)cccc2c1 [Naphazoline hydrochloride (Naphcon)] = 106
O=C(c1ccc(Cl)cc1Cl)n1nnc2ccccc21 = 48.4

Now examine the next entry.
Record CC(C)OC(=O)CCC/C=C\C[C@@H]1[C@@H](CC[C@@H](O)CCc2ccccc2)[C@H](O)C[C@@H]1O [Latanoprost] . Reported cell viability: 89.6

* * *

System: OCI-AML2
method summary: cell viability relative to vehicle control; higher = less cytotoxic
cond: 10 µM; SRSF2 genotype: P95H/wt
Structures can show the parent of a compound that is named as a salt.
result type: cell viability (%)
Field: numeric (%). Do not append units.

C=CS(=O)(=O)NC1CCN(C(=O)CNc2cc(I)c(Cl)cc2OC)CC1 [K-Ras(G12C) inhibitor 9] = 22.1
OC[C@H]1O[C@@](CO)(O[C@H]2O[C@H](CO)[C@@H](O)[C@H](O)[C@H]2O)[C@@H](O[C@H]2O[C@H](CO)[C@@H](O)[C@H](O)[C@H]2O)[C@@H]1O [D-(+)-Melezitose] = 95.1
O=C1C(=O)c2ccccc2C(O)=C1C1CCC(c2ccc(Cl)cc2)CC1 (stereo unspecified) = 84.8

Reported cell viability of CO/N=C(\C(=O)N[C@@H]1C(=O)N2C(C(=O)O)=C(CSC(=O)c3ccco3)CS[C@H]12)c1csc(N)n1 [Ceftiofur hydrochloride] : 93.4

Given item "COc1cc2c(=O)c3c(O)c([C@@H]4O[C@H](CO[C@@H]5OC[C@](O)(CO)[C@H]5O)[C@@H](O)[C@H](O)[C@H]4O)c(O)cc3oc2cc1O" , the value recorded as its cell viability is 105

For O=S(=O)(c1cccc2cnccc12)N1CCCNCC1 [Fasudil HCl (HA-1077)] the compound record lists cell viability as 70.3

* * *

System: MARIMO
method summary: cell viability relative to vehicle control; higher = less cytotoxic
cond: 10 µM; SRSF2 genotype: SRSF2 P95H/wt
Counter-ions that a name gives are not always drawn.
Known cell viability of a selection of compounds
Give your result in % as a bare value.

Example entries begin here.
C=C1[C@H](CO)[C@@H](O)C[C@@H]1n1cnc2c(=O)[nH]c(N)nc21 [Entecavir] = 94.8
COc1cc(CCc2cc(NC(=O)c3ccc(N4CC(C)NC(C)C4)cc3)n[nH]2)cc(OC)c1 (configuration not stated) = 46
CNC(=O)c1ccccc1Nc1nc(Nc2ccc(N3CCOCC3)cc2OC)ncc1Cl = 44.3
COc1cc(C[C@@H](CO[C@@H]2O[C@H](CO)[C@@H](O)[C@H](O)[C@H]2O)[C@H](CO[C@@H]2O[C@H](CO)[C@@H](O)[C@H](O)[C@H]2O)Cc2ccc(O)c(OC)c2)ccc1O [Secoisolariciresinol diglucoside] = 90
O=C1C[C@@H](c2ccc(O)c(O)c2)Oc2cc(O)cc(O)c21 = 88.6
COc1ccc([C@@H]2CC(=O)c3c(O)cc(O[C@@H]4O[C@H](CO)[C@@H](O)[C@H](O)[C@H]4O[C@@H]4O[C@@H](C)[C@H](O)[C@@H](O)[C@H]4O)cc3O2)cc1 = 97.8
CC(C)c1cc(C(=O)N2Cc3ccc(CN4CCN(C)CC4)cc3C2)c(O)cc1O = 28
O=c1c(-c2ccc(O)cc2)coc2cc(O)cc(O)c12 = 92.6

What the record says about "COc1c(O[C@@H]2O[C@H](CO)[C@@H](O)[C@H](O)[C@H]2O)cc2occ(-c3ccc(O)cc3)c(=O)c2c1O" : cell viability is 94.4

cell viability measured on "COc1ccccc1-c1cc(Nc2cccc(CS(N)(=O)=O)c2)ncn1" = 29.4

Record "Cc1cc(CN2CCN(c3c(Br)cnc4nc(-c5ccc(N6CCN(C)CC6)cc5)[nH]c34)CC2)no1" . Reported cell viability: 88.8

The compound "N#CC[C@H](C1CCCC1)n1cc(-c2ncnc3[nH]ccc23)cn1" showed cell viability equal to 78

Form field cell viability, entry Clc1cccc(Cl)c1NC1=NCCN1 [Clonidine hydrochloride (Catapres)] : 110

Lab note: measured cell viability of "C[C@@H]1O[C@@H](O[C@H]2[C@H](O[C@H]3CC[C@@]4(C)[C@@H](CC[C@]5(C)[C@@H]4CC=C4[C@@H]6CC(C)(C)CC[C@]6(C(=O)O[C@@H]6O[C@H](CO[C@@H]7O[C@H](CO)[C@@H](O)[C@H](O)[C@H]7O)[C@@H](O)[C@H](O)[C@H]6O)CC[C@]45C)[C@]3(C)CO)OC[C@H](O)[C@@H]2O)[C@H](O)[C@H](O[C@@H]2O[C@H](CO)[C@@H](O[C@@H]3O[C@H](CO)[C@@H](O)[C@H](O)[C@H]3O)[C@H](O)[C@H]2O)[C@H]1O" was 83.6
